Field: pull-down binding Z-score. Provide a value for each of the sequences that follow.
# System: TO-3-N3 (biotin conjugate)
# Assay Details: pull-down binding Z-score (relative to library population); higher = stronger binding
# Stated Conditions: RNA library: Library-2
Keep it simple and answer with nothing but the number.

[ask] Please look up its pull-down binding Z-score: GUUGACUGUUGAAUCUCAUGGCAAC [hsa-mir-21]
[reply] -0.114

[ask] Please look up its pull-down binding Z-score: GUGUUGGGUAUAAGUAACA [hsa-mir-1270]
[reply] -0.205

[ask] Please look up its pull-down binding Z-score: UUAAAUGUGUCAUUUAAAAAUUCAG [hsa-mir-1972-1_1972-2]
[reply] -0.0749

[ask] Please look up its pull-down binding Z-score: CUGUUUGUUGUCUGAGAAAAAACA [hsa-mir-520g_520h]
[reply] -0.638

[ask] Please look up its pull-down binding Z-score: CCCAUUGGAGAGUCCCCCAAAGGAGUGGAGGAAAGUUCCAUUGGG [IAV_invivo_PA_3_Motif_26+IAV_invivo_PA_3_Motif_26]
[reply] -0.0565

[ask] Please look up its pull-down binding Z-score: GCAUUUUAUCUAAGAUACACACAAAGCAAAUGC [hsa-mir-4439]
[reply] 0.441

[ask] Please look up its pull-down binding Z-score: UAUAAAGUUUAUUAUGGUAAUGCUUUAGAUCAAGCCAUUUCCAUGUGGGCUCUUAUA
[reply] -0.704

[ask] Please look up its pull-down binding Z-score: AUGUUCACUUGAUUAAUGGCGAAUAU [hsa-mir-1185-2_1185-1]
[reply] -0.629

[ask] Please look up its pull-down binding Z-score: CCUGCUGUGUGAAACAAAAGUAAG [hsa-mir-302c]
[reply] -0.422

[ask] Please look up its pull-down binding Z-score: CAACAAAAGUUG [SHAPE_invivo_SARS-CoV-2_Motif_413]
[reply] -0.893

[ask] Please look up its pull-down binding Z-score: UCAAGACUAUUCAACCAAGGGUUGAAAAGAAAAAGCUUGA [SHAPE_invivo_SARS-CoV-2_Motif_22]
[reply] -0.217

[ask] Please look up its pull-down binding Z-score: CAUACAUAUGCCUACUACUACUUUCAUAUGUAGGCAUAUGUAUG [hsa-mir-7852]
[reply] -0.502

[ask] Please look up its pull-down binding Z-score: UGUUGUAACAACA
[reply] -0.671

[ask] Please look up its pull-down binding Z-score: AUGGAUAUGGGAACUGUGAUGUCCA [hsa-mir-4768]
[reply] -0.305

[ask] Please look up its pull-down binding Z-score: GAGGCACUUAAAAUGACCAUGGCCUC [IAV_invivo_NS1_NEP_8_Motif_6+IAV_invivo_NS1_NEP_8_Motif_6]
[reply] 0.555

[ask] Please look up its pull-down binding Z-score: CAGCCCCGUGUGUUGAGGAAGGAAGG [hsa-mir-940]
[reply] 0.485

[ask] Please look up its pull-down binding Z-score: CCGCUAGUGGAAGAAGAUGGCGG [hsa-mir-6125]
[reply] 0.322

[ask] Please look up its pull-down binding Z-score: AUGGCUGAUCAAGCUAU [DMSMaPseq_invitro_SARS-CoV-2_Motif_216]
[reply] -0.238

[ask] Please look up its pull-down binding Z-score: UUAGCCCAGCAAUGGGAGAGUGCUAA [hsa-mir-4636]
[reply] 0.252

[ask] Please look up its pull-down binding Z-score: GGCUGGCCCCCUGCUUCGUGCCCAUCC [hsa-mir-937]
[reply] 0.211

[ask] Please look up its pull-down binding Z-score: UAGCUGGUUUUGCUA [SHAPE_invivo_SARS-CoV-2_Motif_257]
[reply] 0.71

[ask] Please look up its pull-down binding Z-score: GAGACACUC [hsa-mir-6126]
[reply] -0.431

[ask] Please look up its pull-down binding Z-score: CUCAAUGUAGUCUUGUAAGGAACAGGUUGAAG [hsa-mir-595]
[reply] -0.166

[ask] Please look up its pull-down binding Z-score: GGGAGAGGGGCCCAGCUGACCCUCCUGUC [hsa-mir-6879]
[reply] 0.755

[ask] Please look up its pull-down binding Z-score: CUCUUGAGUGCAUUAAAGACCUUCUAGCACGUGCUGGUAAAGCUUCAUGCACUUUGUCCGAACAACUGGACUUUAUUGACACUAAGAG [SHAPE_invitro_SARS-CoV-2_Multi_69_ComplexLevel_1]
[reply] -0.706

[ask] Please look up its pull-down binding Z-score: CACUAAUGUGAUUAAUGUUGUUGUG [hsa-mir-3657]
[reply] -0.405

[ask] Please look up its pull-down binding Z-score: GGAGAGUAUGGUCACAGCAGCAUCCUCC [hsa-mir-6780a]
[reply] -0.0714

[ask] Please look up its pull-down binding Z-score: GGGCAGAAAUAGAUGGCCU [hsa-mir-4270]
[reply] 1

[ask] Please look up its pull-down binding Z-score: UCCCAUGAGGGG [IAV_invivo_HA_4_Motif_6+IAV_invivo_HA_4_Motif_6]
[reply] -0.753

[ask] Please look up its pull-down binding Z-score: UGGGUUGAACUGUGUGGACAAGCUCA [hsa-mir-181b-1]
[reply] -0.111

[ask] Please look up its pull-down binding Z-score: AUUCUGAAGUUGUUCUUAAAAAGUUGAAGAAGUCUUUGAAU [DMSMaPseq_invitro_SARS-CoV-2_Motif_213]
[reply] -0.963

[ask] Please look up its pull-down binding Z-score: UCCCAGGAAAUUCACUUUAGGAAGUCCUAGGA [hsa-mir-5571]
[reply] -0.734

[ask] Please look up its pull-down binding Z-score: CAUGGAUUUGUCUUCUACAAUUUGCCUAUG
[reply] -0.852

[ask] Please look up its pull-down binding Z-score: CCAAGGUUGUGCUUUUAGGAAAUGUUGGCUGUCCUGCGG [hsa-mir-5739]
[reply] -0.448

[ask] Please look up its pull-down binding Z-score: CAACAAUGUGUGAUAUCAGACAACUACUAUUUGUAGUUGAAGUUGUUG
[reply] -0.133

[ask] Please look up its pull-down binding Z-score: AGCUGUGUUUUCUGACUCAGUCAUAAU [hsa-mir-365b]
[reply] -0.26

[ask] Please look up its pull-down binding Z-score: UAGAUGCUGUAAAUUUACUUACUAAUAUGUUUACACCACUAAUUCAACCUAUUGGUGCUUUGGACAUAUCAGCAUCUA [DMSMaPseq_invitro_SARS-CoV-2_Multi_30_ComplexLevel_1]
[reply] 0.39

[ask] Please look up its pull-down binding Z-score: GGAUCCCGACUGGCGAGAGCCAGGUAACGAAUGGAUCC [MG-aptamer]
[reply] -0.00379

[ask] Please look up its pull-down binding Z-score: UGCUCCUUGAACAGGAGGAGCA [hsa-mir-4708]
[reply] -0.48
